Value source: paper PMC7397269

Heads up, these molecules all have pIC50 values measured for COX-2 (Homo sapiens).
Remember the convention: pIC50 equals -log10 of concentration in molar.

// recorded pIC50 for Cc1ccc2oc(=O)c3c(c2c1)OC(/N=C/N(C)C)=C(C#N)C3c1ccc([N+](=O)[O-])cc1 (racemic) : 5.10

pIC50 measured on Cc1ccc2oc(=O)c3c(c2c1)OC(/N=C/c1ccccc1)=C(C#N)C3c1ccc([N+](=O)[O-])cc1 (racemic) = 5.13

Lab note: Cc1ccc2oc(=O)c3c(c2c1)OC(/N=C/c1ccc(Cl)cc1Cl)=C(C#N)C3c1ccco1 (racemic) gave pIC50 of 5.51

For CC(=O)c1ccc(NS(=O)(=O)c2c(O)c3cc(Cl)ccc3oc2=O)cc1 the molecule record lists pIC50 as 5.04

What the record says about O=c1oc2ccc(Cl)cc2c(O)c1S(=O)(=O)Nc1ccc(S(=O)(=O)Nc2nccs2)cc1 : pIC50 is 4.79

Per the record, Cc1ccc2oc(=O)c3c(c2c1)OC(N)=C(C#N)C3c1ccc([N+](=O)[O-])cc1 (racemic) has pIC50 of 5.56

Measured pIC50 of O=c1oc2ccc(Cl)cc2c(O)c1S(=O)(=O)Nc1ccc(S(=O)(=O)Nc2ncccn2)cc1 : 4.70

Entry Cc1ccc2oc(=O)c3c(c2c1)OC(N)=C(C(N)=O)C3c1ccc([N+](=O)[O-])cc1 (racemic) — recorded pIC50 = 5.01

###

# experimentalSystem: UniProt P23219
# Sequence (P23219 24-599): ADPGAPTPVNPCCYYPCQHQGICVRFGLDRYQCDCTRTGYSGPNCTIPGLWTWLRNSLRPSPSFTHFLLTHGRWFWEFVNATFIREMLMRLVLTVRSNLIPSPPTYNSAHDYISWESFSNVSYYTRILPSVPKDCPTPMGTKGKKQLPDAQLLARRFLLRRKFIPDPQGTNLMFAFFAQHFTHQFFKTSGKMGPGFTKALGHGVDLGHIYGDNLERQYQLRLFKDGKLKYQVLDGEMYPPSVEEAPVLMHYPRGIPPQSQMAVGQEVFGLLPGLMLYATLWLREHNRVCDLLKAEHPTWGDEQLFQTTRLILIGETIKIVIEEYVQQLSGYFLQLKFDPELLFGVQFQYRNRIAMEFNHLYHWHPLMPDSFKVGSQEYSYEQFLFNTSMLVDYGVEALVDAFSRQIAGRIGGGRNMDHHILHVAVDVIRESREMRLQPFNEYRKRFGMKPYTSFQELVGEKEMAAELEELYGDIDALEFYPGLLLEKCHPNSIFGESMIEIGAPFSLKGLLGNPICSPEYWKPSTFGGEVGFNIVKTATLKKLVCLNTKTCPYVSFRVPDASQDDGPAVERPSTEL
pIC50: −log10 of the molar value.
Label 0 if pIC50 falls below 4; label 1 in every other case.

q: Textbook exercise: given the entry Cc1ccc2oc(=O)c3c(c2c1)OC(N)=C(C#N)C3c1ccco1 (racemic) , state whether its pIC50 is greater than or equal to 4.
a: 0

q: Can NS(=O)(=O)c1ccc(NS(=O)(=O)c2c(O)c3cc(Cl)ccc3oc2=O)cc1 be said to have pIC50 at or above 4?
a: 0

q: Is pIC50 for O=c1oc2ccc(Cl)cc2c(O)c1S(=O)(=O)Nc1ccc(S(=O)(=O)Nc2ncccn2)cc1 at or above 4?
a: 1

q: // inclusive: pIC50 at least 4? input: COc1cc(/C=N/C2=C(C#N)C(c3ccc([N+](=O)[O-])cc3)c3c(c4cc(C)ccc4oc3=O)O2)cc(OC)c1OC (racemic)
a: 1

###

# Test system: trypsin
# assayExplanation: Proteinase-inhibitory activity
# Type: biochemical
# settings: 250 µg/mL; mean ± SD (n = 3)
Exercise: for every item that follows, state its recorded % Inhibition (proteinase).
// note: answer is a bare numeric in %

Reported % Inhibition (proteinase) of O=c1oc2ccc(Cl)cc2c(O)c1S(=O)(=O)Nc1ccccc1 : 44.7

Just so you know, measured % Inhibition (proteinase) for NS(=O)(=O)c1ccc(NS(=O)(=O)c2c(O)c3cc(Cl)ccc3oc2=O)cc1 came out at 18.78

// Cc1ccc2oc(=O)c3c(c2c1)OC(N)=C(C#N)C3c1ccc([N+](=O)[O-])cc1 (racemic) : % Inhibition (proteinase) value = 17.38

Query CC(=O)c1ccc(NS(=O)(=O)c2c(O)c3cc(C)ccc3oc2=O)cc1 yields % Inhibition (proteinase) of 2.0

Query Cc1ccc2oc(=O)c3c(c2c1)OC(/N=C/c1ccc(Cl)cc1Cl)=C(C#N)C3c1ccco1 (racemic) yields % Inhibition (proteinase) of 26.83

So for Cc1ccc2oc(=O)c3c(c2c1)OC(N)=C(C#N)C3c1ccco1 (racemic) , the logged % Inhibition (proteinase) turned out to be 74.68

The reported % Inhibition (proteinase) of the compound COc1ccc(/C=C/C(=O)c2ccc(NS(=O)(=O)c3c(O)c4cc(C)ccc4oc3=O)cc2)cc1 was 21.7

###

COX-2 (Homo sapiens) data, read-out IC50
Sequence (P35354 18-604): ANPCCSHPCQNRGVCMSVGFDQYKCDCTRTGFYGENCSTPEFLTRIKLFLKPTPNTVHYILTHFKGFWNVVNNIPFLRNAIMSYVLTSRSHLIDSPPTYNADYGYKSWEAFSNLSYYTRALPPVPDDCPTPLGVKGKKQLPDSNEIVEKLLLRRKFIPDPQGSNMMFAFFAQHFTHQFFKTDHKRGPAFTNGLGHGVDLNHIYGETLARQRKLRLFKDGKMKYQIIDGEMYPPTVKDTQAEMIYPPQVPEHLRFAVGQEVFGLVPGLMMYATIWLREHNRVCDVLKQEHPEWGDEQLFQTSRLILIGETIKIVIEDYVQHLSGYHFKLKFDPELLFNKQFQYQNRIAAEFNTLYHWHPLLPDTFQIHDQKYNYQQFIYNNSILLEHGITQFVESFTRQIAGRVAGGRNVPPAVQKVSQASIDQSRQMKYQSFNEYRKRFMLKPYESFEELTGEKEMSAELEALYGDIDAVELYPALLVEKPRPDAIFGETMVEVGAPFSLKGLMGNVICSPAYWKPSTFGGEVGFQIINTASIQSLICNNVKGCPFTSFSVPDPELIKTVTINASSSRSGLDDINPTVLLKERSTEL
State just the number; it will be interpreted in µM.

// IC50 lookup, molecule = Cc1ccc2oc(=O)c3c(c2c1)OC(/N=C/c1ccccc1)=C(C#N)C3c1ccco1 (racemic) [5b] , result: 19.6

Value of IC50 reported for the molecule O=c1oc2ccc(Cl)cc2c(O)c1S(=O)(=O)Nc1ccccc1 [8a] is 8.5

IC50 in this record for COc1cc(/C=N/C2=C(C#N)C(c3ccco3)c3c(c4cc(C)ccc4oc3=O)O2)cc(OC)c1OC (racemic) [5d] : 16

Given item Cc1ccc2oc(=O)c3c(c2c1)OC(N)=C(C(N)=O)C3c1ccco1 (racemic) [3b] , the value recorded as its IC50 is 2.45

Data point: NS(=O)(=O)c1ccc(NS(=O)(=O)c2c(O)c3cc(Cl)ccc3oc2=O)cc1 [7a] ; IC50 = 17.4

Sample Cc1ccc2oc(=O)c3c(c2c1)OC(/N=C/c1ccc(Cl)cc1Cl)=C(C#N)C3c1ccc([N+](=O)[O-])cc1 (racemic) [5e] ; IC50 observed: 8.27

O=c1oc2ccc(Cl)cc2c(O)c1S(=O)(=O)Nc1ccc(O)cc1 [8c] yielded IC50 of 11.9
